- experiment description: Permeability from apical to basolateral side in human Caco-2 cells
- Type: ADME, cell-based
- experimental setup: read-out: permeability
property label: Papp A→B (×10⁻⁶ cm/s)
Just the number please, in ×10⁻⁶ cm/s, no unit attached.

CCNC(=O)N1CCC(CN(C2Cc3cc(C#N)ccc3N(Cc3cncn3C)C2)S(=O)(=O)c2ccccn2)CC1 (stereo not drawn) :: 0.6
Cn1cncc1CN1CC(N(CC2CCN(C(=O)C3CC3)CC2)S(=O)(=O)c2ccccn2)Cc2cc(C#N)ccc21 (stereo not drawn) :: 0.5
Cn1cncc1CN1CC(N(Cc2ccc(S(C)(=O)=O)cc2)S(=O)(=O)c2ccccn2)Cc2cc(C#N)ccc21 (stereo not drawn) :: 0.2
Cn1cncc1CN1CC(N(CC2CCN(C(=O)c3ccc(Cl)cc3)CC2)S(=O)(=O)c2ccccn2)Cc2cc(C#N)ccc21 (stereo not drawn) :: 0.5

The value of Papp A→B measured for the compound CCC(=O)N1CCC(CN(C2Cc3cc(C#N)ccc3N(Cc3cncn3C)C2)S(=O)(=O)c2ccccn2)CC1 (stereo not drawn) turned out to be 0.5

The value of Papp A→B measured for the compound CC(C)NC(=O)N1CCC(CN(C2Cc3cc(C#N)ccc3N(Cc3cncn3C)C2)S(=O)(=O)c2ccccn2)CC1 (stereo not drawn) turned out to be 0.6

The value of Papp A→B measured for the compound Cn1cnc(S(=O)(=O)N(CCn2cccc2)C2Cc3cc(C#N)ccc3N(Cc3cncn3C)C2)c1 (stereo not drawn) turned out to be 0.3

The value of Papp A→B measured for the compound Cn1cncc1CN1CC(N(CC2CCN(C(=O)c3ccccc3)CC2)S(=O)(=O)c2ccccn2)Cc2cc(C#N)ccc21 (stereo not drawn) turned out to be 0.5
